- System: Saccharomyces cerevisiae
- PROTOCOL_TEXT: protein stability index of tFT-peptide fusion (C-terminal peptide) (PSI (0-1 scale)); higher = more stable (slower turnover)
- ASSAY_CONDITIONS: genetic background: wild type; temperature: 30 C
OBSERVATION_TYPE: protein stability index
Keep the answer to the number alone.

Reference set, count: 6
AVPSGLPLMFPR; 0.662
MSGRGPYPYSPL; 0.747
FMCCFWFFWLGF; 0.459
GCMRCTYKGKVK; 0.713
ALLSRFFPAFFF; 0.604
AGGGGRFWVCVG; 0.364

Quick check: protein stability index on Saccharomyces cerevisiae, item `PPLPPPPRSPPS` ?
0.756

Similarly, `PPCFPHPLPPPR` ?
0.744

Similarly, `LPPLAPPPPPLP` ?
0.688

Similarly, `GFTGGGRRWLGG` ?
0.713

Similarly, `PSLAASFWRVVG` ?
0.197

Similarly, `SSFGIVWKKDAI` ?
0.736

Similarly, `AYFLPPLPTTPP` ?
0.692

###

Each item that follows carries a reported protein stability index.
- System: Saccharomyces cerevisiae
- PROTOCOL_TEXT: protein stability index of tFT-peptide fusion (C-terminal peptide) (PSI (0-1 scale)); higher = more stable (slower turnover)
- ASSAY_CONDITIONS: genetic background: cdc34-1; temperature: 37 C
Keep the answer to the number alone.

Reference set, count: 5
YLFPHVRPKFPG; 0.693
SWRRCLSSIPVA; 0.383
GGWGSSLGVWVG; 0.663
CFRRPLLRVVLT; 0.502
PPSRVSIRLLIR; 0.446

Name the recorded protein stability index for `SRPEPNGLRKLV` .
0.587

Similarly, `FNLFWPVSAFVV` ?
0.506

Similarly, `WHLLRFETQMFC` ?
0.571

Similarly, `LFLSFLLLYFRP` ?
0.269

###

- System: Saccharomyces cerevisiae
- PROTOCOL_TEXT: protein stability index of tFT-peptide fusion (C-terminal peptide) (PSI (0-1 scale)); higher = more stable (slower turnover)
- ASSAY_CONDITIONS: genetic background: wild type; temperature: 30 C
OBSERVATION_TYPE: protein stability index

Reference set, count: 6
GGGCQVSPPSLL; 0.708
SKPPLPTRLPRP; 0.706
GAGSRRRNWGGW; 0.711
QRWTAGTQIRPV; 0.706
LHSIPLNPYLIA; 0.712
ICVSGALMARAL; 0.68

Quick check: protein stability index on Saccharomyces cerevisiae, item `FPCIPAAPPIFL` ?
0.71

Similarly, `TGRERLAEGDWR` ?
0.692

Similarly, `PPSLVSPSSPPS` ?
0.708

Similarly, `PCYSFSSSPPRL` ?
0.693

Similarly, `IACPPSVIFSPH` ?
0.713

Similarly, `DPPSPLPRVSPP` ?
0.706

###

Each item that follows carries a reported protein stability index.
- Test system: Saccharomyces cerevisiae
- PROTOCOL_TEXT: protein stability index of tFT-peptide fusion (C-terminal peptide) (PSI (0-1 scale)); higher = more stable (slower turnover)
- ASSAY_CONDITIONS: genetic background: wild type; temperature: 30 C

Reference set, count: 2
NLMVADDKVWRV [MCM3 C-terminal 12 aa]; 0.7
RPFEIASFRLYF [AMS1 C-terminal 12 aa]; 0.683

Name the recorded protein stability index for CNLFSERKPVNH [YGL188C-A C-terminal 12 aa] .
0.691
